Origin of measurements: patent US20150337037A1

- MEASURED ON: T1, cynomolgus monkey CCR6 (cynomolgus monkey (Macaca Fascicularis))
- T1 construct: whole, on cells; gene derived from a total RNA library; also called CCR6 cyno; cyno CCR6
- METHOD DESCRIPTION: flow cytometry on cells expressing the target, IgG1 titration, anti-human Fc-PE
METRIC: pEC50
# pEC50 = -log10(concentration in molar units)

The reported value for MSM-R617 IgG1 (antibody, V domains shown, Fully human IgG1; also called MSMR617.46) VH: EVQLLESGGGLVQPGGSLRLSCAASGFTFSGYAMHWVRQAPGKGLEWVSSIGSRRGFTSYADSVKGRFTISRDNSKNTLYLQMNSLRAEDTAVYYCARSYAYQYRGLDYWGQGTLVTVSS VL: EIVLTQSPGTLSLSPGERATLSCRASQSVSSSYLAWYQQKPGQAPRLLIYGASSRATGIPDRFSGSGSGTDFTLTISRLEPEDFAVYYCQQRSSVTFGQGTKVEIKR in terms of pEC50 is 8.72

The reported value for MSM-R604 IgG1 (antibody, V domains shown, Fully human IgG1) VH: EVQLLESGGGLVQPGGSLRLSCAASGFTFTNYSMHWVRQAPGKGLEWVSLISPYSSSTYYADSMKGRFTISRDNSKNTLYLQMNSLRAEDTAVYYCARGRYYGAYSYPGFDYWGQGTLVTVSS VL: EIVLTQSPGTLSLSPGERATLSCRASQSVSSSYLAWYQQKPGQAPRLLIYGASSRATGIPDRFSGSGSGTDFTLTISRLEPEDFAVYYCQQSAKNPLTFGQGTKVEIKR in terms of pEC50 is 8.82
